target: T1, Recombinant human CD47(ECD)-HIS (human, UniProt Q08722 19-139, limits assumed); assay: competition ELISA: blocking of SIRPα binding to CD47(ECD)-HIS
T1 construct: also called huCD47-HIS; not shown: HIS tag
T1 sequence (Q08722 19-139 limits assumed): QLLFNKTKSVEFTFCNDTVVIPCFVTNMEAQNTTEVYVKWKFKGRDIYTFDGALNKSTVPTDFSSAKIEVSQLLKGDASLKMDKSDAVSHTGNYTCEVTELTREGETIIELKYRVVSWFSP
# IC50 binned as low value (below 7 nM), medium value (7 nM to below 10 nM), high value (10 nM or more)

q: Band of H8L10 (antibody, V domains shown, Humanized from mouse 17C6A; also called humanized anti-CD47 mAb H8L10) VH: QVQLVQSGAEVKKPGASVKVSCKASGYTFTSYWMHWVRQAPGQGLEWIGNIDPSDSETHYAQKFQGRVTLTVDKSTSTVYMELSSLRSEDTAVYYCAGTDLAYWGQGTLVTVSS VL: EIVMTQSPGTLSLSPGERATLSCHASQNINVWLSWYQQKPGQAPRLLIYKASNLHTGIPDRFSGSGSGTDFTLTISRLEPEDFAVYYCQQGQSYPFTFGQGTKVEIK ?
a: low value

q: Moving on to the next binder: H1L4 (antibody, V domains shown, also called humanized anti-CD47 mAb H1L4) VH: QVQLVQSGAEVKKPGASVKVSCKASGYTFTSYWMHWVRQAPGQGLEWMGNIDPSDSETHYNQKFKDRVTLTVDTSTSTVYMELSSLRSEDTAVYYCSRWGYYGKSAMDYWGQGTLVTVSS VL: AVQITQSPSFLSASVGQTITINCRASKSISKYLAWYQEKPGKANKLLIYSGSTLQSGIPSRFSGSGSGTDFTLTISSLEPEDFAMYYCQQHNEYPWTFGGGTKVEIK
a: medium value

q: Moving on to the next binder: H2L1 (antibody, V domains shown, also called humanized anti-CD47 mAb H2L1) VH: QVQLVQSGAEVKKPGASVKLSCKASGYTFTSYWMHWVRQAPGQGLEWMGNIDPSDSETHYNQKFKDRVTLTVDTSTSTAYMELSSLRSEDTAVYYCSRWGYYGKSAMDYWGQGTLVTVSS VL: AVQLTQSPSFLSASVGDRVTITCRASKSISKYLAWYQQKPGKANKLLIYSGSTLQSGVPSRFSGSGSGTEFTLTISSLQPEDFAMYYCQQHNEYPWTFGGGTKVEIK
a: low value

q: Moving on to the next binder: H3L9 (antibody, V domains shown, also called humanized anti-CD47 mAb H3L9) VH: QVQLVQSGAEVKKPGASVKLSCKASGYTFTSYWMHWVRQAPGQGLEWIGNIDPSDSETHYNQKFKDRATLTVDTSTSTAYMELSSLRSEDTAVYYCSRWGYYGKSAMDYWGQGTLVTVSS VL: DVQLTQSPSFLSASVGDRVTITCRASKSISKYLAWYQQKPGKANKLLIYSGSTLQSGVPSRFSGSGSGTEFTLTISSLQPEDFAMYYCQQHNEYPWTFGGGTKVEIK
a: medium value

q: Moving on to the next binder: H1L3 (antibody, V domains shown, also called humanized anti-CD47 mAb H1L3) VH: QVQLVQSGAEVKKPGASVKVSCKASGYTFTSYWMHWVRQAPGQGLEWMGNIDPSDSETHYNQKFKDRVTLTVDTSTSTVYMELSSLRSEDTAVYYCSRWGYYGKSAMDYWGQGTLVTVSS VL: AVQLTQSPSFLSASVGQRITINCRASKSISKYLAWYQEKPGKANKLLIYSGSTLQSGIPSRFSGSGSGTDFTLTISSLQPEDFAMYYCQQHNEYPWTFGGGTKVEIK
a: medium value

q: Moving on to the next binder: H3L2 (antibody, V domains shown, also called humanized anti-CD47 mAb H3L2) VH: QVQLVQSGAEVKKPGASVKLSCKASGYTFTSYWMHWVRQAPGQGLEWIGNIDPSDSETHYNQKFKDRATLTVDTSTSTAYMELSSLRSEDTAVYYCSRWGYYGKSAMDYWGQGTLVTVSS VL: AVQLTQSPSFLSASVGQRITINCRASKSISKYLAWYQQKPGKANKLLIYSGSTLQSGVPSRFSGSGSGTEFTLTISSLQPEDFAMYYCQQHNEYPWTFGGGTKVEIK
a: medium value

q: Moving on to the next binder: H5L5 (antibody, V domains shown, also called humanized anti-CD47 mAb H5L5) VH: QIQLVQSGAEVKKPGASVKVSCKASGYTFTAYYINWVRQAPGQRLEWIGWIYPGSGNTKYNEKFKGRVTLTVDTSASTAYIELSSLRSEDTAVYYCARRGPWYFDVWGQGTTVTVSS VL: EIVMTQSPATLSLSPGERATLSCRASENVGTYVSWYQQKPGQAPNLLIYGASNRYTGIPARFSGSGSGTDFTLTISSLQPEDFAVYHCGQTYSYPLTFGQGTKLEIK
a: high value

q: Moving on to the next binder: H6L7 (antibody, V domains shown, also called humanized anti-CD47 mAb H6L7) VH: QIQLVQSGAEVKKPGASVKVSCKASGYTFTAYYINWVRQAPGQRLEWIGWIYPGSGNTKYNEKFKGRVTLTVDTSASTAYIELSSLRSEDTAVYFCARRGPWYFDVWGQGTTVTVSS VL: EIVMTQSPATLSLSPGERATLSCKASENVGTYVSWYQQKPGQSPNLLIYGASNRYTGIPDRFSGSGSGTDFTLTISSLQPEDFAVYHCGQTYSYPLTFGQGTKLEIK
a: high value

q: Moving on to the next binder: H3L4 (antibody, V domains shown, also called humanized anti-CD47 mAb H3L4) VH: QVQLVQSGAEVKKPGASVKLSCKASGYTFTSYWMHWVRQAPGQGLEWIGNIDPSDSETHYNQKFKDRATLTVDTSTSTAYMELSSLRSEDTAVYYCSRWGYYGKSAMDYWGQGTLVTVSS VL: AVQITQSPSFLSASVGQTITINCRASKSISKYLAWYQEKPGKANKLLIYSGSTLQSGIPSRFSGSGSGTDFTLTISSLEPEDFAMYYCQQHNEYPWTFGGGTKVEIK
a: low value

q: Moving on to the next binder: H2L3 (antibody, V domains shown, also called humanized anti-CD47 mAb H2L3) VH: QVQLVQSGAEVKKPGASVKLSCKASGYTFTSYWMHWVRQAPGQGLEWMGNIDPSDSETHYNQKFKDRVTLTVDTSTSTAYMELSSLRSEDTAVYYCSRWGYYGKSAMDYWGQGTLVTVSS VL: AVQLTQSPSFLSASVGQRITINCRASKSISKYLAWYQEKPGKANKLLIYSGSTLQSGIPSRFSGSGSGTDFTLTISSLQPEDFAMYYCQQHNEYPWTFGGGTKVEIK
a: medium value
